system_name: SRSF protein kinase 1 (Homo sapiens, UniProt Q96SB4)
Sequence (Q96SB4 whole entry): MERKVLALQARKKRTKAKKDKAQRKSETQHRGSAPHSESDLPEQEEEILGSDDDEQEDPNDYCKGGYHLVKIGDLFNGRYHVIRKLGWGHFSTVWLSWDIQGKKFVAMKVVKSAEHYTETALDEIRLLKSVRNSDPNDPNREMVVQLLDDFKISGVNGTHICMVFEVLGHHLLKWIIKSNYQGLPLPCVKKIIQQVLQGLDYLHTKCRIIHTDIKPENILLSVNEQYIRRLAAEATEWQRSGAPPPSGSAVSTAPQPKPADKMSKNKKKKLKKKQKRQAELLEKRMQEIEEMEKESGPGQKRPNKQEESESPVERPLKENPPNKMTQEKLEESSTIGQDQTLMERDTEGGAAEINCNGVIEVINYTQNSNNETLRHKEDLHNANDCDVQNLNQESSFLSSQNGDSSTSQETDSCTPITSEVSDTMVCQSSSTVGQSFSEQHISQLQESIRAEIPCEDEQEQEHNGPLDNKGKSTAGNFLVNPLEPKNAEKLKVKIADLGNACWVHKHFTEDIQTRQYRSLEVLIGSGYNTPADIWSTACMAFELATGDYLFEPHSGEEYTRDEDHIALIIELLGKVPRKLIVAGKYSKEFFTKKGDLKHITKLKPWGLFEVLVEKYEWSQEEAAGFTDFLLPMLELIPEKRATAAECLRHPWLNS
measurement_description: Inhibition of human recombinant SRPK1 expressed in Escherichia coli in presence of ATP by Kinase-Glo assay

test_smiles	IC50, nM
COc1cc(/C=C(\C#N)C(=O)Nc2nnc(C(F)(F)F)s2)ccc1O	2400

----------
system_name: Dual specificity protein kinase CLK2 (Homo sapiens)
Sequence (P49760 whole entry): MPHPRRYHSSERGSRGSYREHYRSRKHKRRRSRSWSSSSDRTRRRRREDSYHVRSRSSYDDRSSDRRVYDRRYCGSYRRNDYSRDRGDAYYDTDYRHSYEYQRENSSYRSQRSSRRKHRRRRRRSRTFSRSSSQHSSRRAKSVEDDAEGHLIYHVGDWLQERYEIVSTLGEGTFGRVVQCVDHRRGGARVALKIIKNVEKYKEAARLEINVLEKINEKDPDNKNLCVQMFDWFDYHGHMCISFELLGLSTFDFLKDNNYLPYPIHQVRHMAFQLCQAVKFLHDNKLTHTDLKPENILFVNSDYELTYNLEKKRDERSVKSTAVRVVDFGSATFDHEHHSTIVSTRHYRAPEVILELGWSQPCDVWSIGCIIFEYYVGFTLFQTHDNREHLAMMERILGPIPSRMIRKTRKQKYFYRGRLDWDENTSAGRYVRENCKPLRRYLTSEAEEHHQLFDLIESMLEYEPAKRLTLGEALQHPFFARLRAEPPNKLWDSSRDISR

molecule	IC50
Cc1cc(O)cc2oc(=O)c3c(O)cc(O)cc3c12 [ALTERNARIOL]	0.707 µM
O=C1CC[C@]2(O)c3c(ccc(O)c31)-c1ccc(O)c3c1C2[C@H]1O[C@H]1C3=O (some centres not stated)	5.1 µM

----------
pIC50 listing for selected compounds.
system_name: Casein kinase II subunit alpha' (Homo sapiens, UniProt P19784)
Sequence (P19784 whole entry): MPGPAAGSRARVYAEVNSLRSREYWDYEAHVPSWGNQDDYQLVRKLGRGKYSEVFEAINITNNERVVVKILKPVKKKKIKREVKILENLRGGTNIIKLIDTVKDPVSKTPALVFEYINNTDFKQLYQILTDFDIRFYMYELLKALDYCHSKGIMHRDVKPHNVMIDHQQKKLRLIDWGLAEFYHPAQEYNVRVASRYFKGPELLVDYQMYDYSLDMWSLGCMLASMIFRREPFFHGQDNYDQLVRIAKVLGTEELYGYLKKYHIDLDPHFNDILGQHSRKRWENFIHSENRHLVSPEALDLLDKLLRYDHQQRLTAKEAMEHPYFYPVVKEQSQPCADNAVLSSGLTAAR
measurement_description: Inhibition of CK2alpha2 (unknown origin)
pIC50: −log10 of the molar value.
test_readout: pIC50

compound	system_name	endpoint_result
O=C1Nc2cc(CS(=O)(=O)c3c(Cl)cccc3Cl)ccc2S/C1=C\c1ccc(O)c([N+](=O)[O-])c1	Casein kinase II subunit alpha' (Homo sapiens, UniProt P19784)	8.30
CC1CC(=O)c2c3c(n(C(C)C)c2C1=O)-c1ccccc1C3=O (configuration not stated)	Casein kinase II subunit alpha' (Homo sapiens, UniProt P19784)	6.56
